Assay: small-molecule microarray binders of probe aEGFR, primary screen, biochemical, biotinylated probe, 635/667 nm fluorescence (AID 1097);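 note: probe is a biotinylated anti-EGFR antibody binding compounds printed on slides; score combines fluorescence near 667 nm and signal to noise of each spot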
Details: higher = more signal
Answer -1 if composite z-score is under -0.05, and 1 if it is -0.05 or more.

Cc1ccc(F)cc1S(=O)(=O)N[C@@H]1CCN(Cc2ccc(OC(C)C)cc2)C1    -1
C=C(COC)/C(=C/C[C@@H](OC(=O)c1ccncc1)c1cccc(OCCO)c1)c1cnc2ccccc2c1    1
CCN(CC)c1ccc(N2CC=CC34O[C@@H]5/C=C\CCC(C)OC(=O)C5[C@H]3C(=O)N(CCO)[C@@H]4C2=O)cc1 (some centres undefined)    -1
CCOC(=O)C1=C[C@@H](c2ccccc2)N(S(=O)(=O)c2ccc(C)cc2)[C@H]1c1cccc(Cl)c1    1
O=C1OC[C@@H](c2ccccc2)N2CC(/C=C/c3ccccc3)=CC12 (some centres undefined)    -1

Please indicate if the recorded composite z-score for CC(C)(C)OC(=O)CC[C@]1(C(=O)O)N=C(c2ccc(OCCCO)cc2)O[C@H]1c1ccccc1 meets or exceeds -0.05.
1

What would you report for [N-]=[N+]=Nc1ccccc1[C@H]1OC(c2ccc(OCCCO)cc2)=N[C@@]1(CCS(=O)(=O)c1ccccc1)C(=O)N1CCCCC1 ?
1

Next entry: C=CCOC(=O)[C@@H]1[C@H]2C(=O)O[C@H](c3ccccc3)[C@H](c3ccccc3)N2[C@H](c2ccc(OCCOC(=O)[C@H]3C[C@H]4C(=O)N[C@@H](CCCCNC(C)=O)C(=O)N4[C@H]3c3cccc(OCCO)c3)cc2)[C@@]12C(=O)Nc1ccc(I)cc12
-1

Another: O=C1O[C@H](c2ccccc2)[C@H](c2ccccc2)N2[C@H]1[C@@H](C(=O)O)[C@]1(C(=O)Nc3ccccc31)[C@H]2c1ccc(O)cc1
-1

Entry to check: CCCCN1CC=CC23O[C@@H]4C=CCOC(=O)[C@@H]4[C@H]2C(=O)N(CCCO)[C@@H]3C1=O (some centres undefined)
-1

Same read-out for C=C(CCCC)C(=O)CC[C@@H](OC(=O)c1ccccc1-c1ccccc1C(=O)O)c1cccc(OCCO)c1 ?
-1

CN(C)C(=O)[C@]1(CCC(=O)OC(C)(C)C)N=C(c2ccc(OCCCO)cc2)O[C@@H]1c1ccccc1 ?
1

Query COCCOC(=O)N1C(=O)[C@@]2(c3cc(C#CC4=CCCCC4)ccc31)[C@H](C(=O)N1CCN(c3ncccn3)CC1)[C@H]1C(=O)O[C@H](c3ccccc3)[C@H](c3ccccc3)N1[C@@H]2c1ccc(O)cc1 next
1

Next entry: O=C1O[C@@H](c2ccccc2)[C@@H](c2ccccc2)N2[C@@H](c3ccccc3OCCO)[C@]3(C(=O)Nc4ccc(C#CCCO)cc43)[C@@H](C(=O)N3CCN(c4ncccn4)CC3)[C@H]12
-1
